molecular target: NLRP3 (Homo sapiens); assay: Human whole blood IL1β release assay; type: cell-based; conditions: LPS 1 μg/ml, nigericin 10 μM, IL-1β AlphaLisa, 10 μM top dose (Example 2: top dose of 30 μM), read-out: HWB IC50
Listed next: entries and their corresponding IC50.
quantityMeasured: IC50

molecule=CN1CCC2(CC1)CN(S(=O)(=O)c1nnc(Nc3c4c(cc5c3CCC5)CCC4)[nH]1)C2 endpointvalue="≤ 1 µM"
molecule=O=S(=O)(c1nnc(Nc2c3c(cc4c2CCC4)CCC3)[nH]1)N1CCC2(CCCN2C2CC2)CC1 endpointvalue="≤ 5 µM"
molecule=CCN(CC)CCS(=O)(=O)c1nnc(Nc2c3c(cc4c2CCC4)CCC3)[nH]1 endpointvalue="≤ 5 µM"
molecule=COC(C)(C)Cn1ccc(S(=O)(=O)c2nnc(Nc3c4c(cc5c3CCC5)CCC4)[nH]2)n1 endpointvalue="≤ 10 µM"
molecule=CN(C)C1CN(S(=O)(=O)c2nnc(Nc3c4c(cc5c3CCC5)CCC4)[nH]2)C1 endpointvalue="≤ 5 µM"
molecule="COc1cc(-c2cc(F)cc(C(C)C)c2Oc2nnc(S(=O)(=O)N3CCC(CN(C)C)C3)[nH]2)ccn1 (centres unmarked)" endpointvalue="≤ 1 µM"
molecule=COC(C)(C)[C@H]1CCN(S(=O)(=O)c2nnc(Nc3c4c(cc5c3CCC5)CCC4)[nH]2)C1 endpointvalue="≤ 10 µM"
molecule=CN(C)CCCS(=O)(=O)c1nnc(Nc2c3c(cc4c2CCC4)CCC3)[nH]1 endpointvalue="≤ 0.5 µM"
molecule=CN1CCC2(CCN(S(=O)(=O)c3nnc(Nc4c5c(cc6c4CCC6)CCC5)[nH]3)CC2)C1 endpointvalue="≤ 0.5 µM"
molecule=COc1cc(-c2ccc3c(c2Nc2nnc(S(=O)(=O)N4CCC5(CCCN5C)CC4)[nH]2)CCO3)ccn1 endpointvalue="≤ 5 µM"
molecule=CN(C)C1CCN(S(=O)(=O)c2nnc(Nc3c(-c4ccnc(OC(F)F)c4)ccc4c3CCC4)[nH]2)CC1 endpointvalue="≤ 1 µM"

###

molecular target: NLRP3 (Homo sapiens, UniProt Q96P20); test: THP-1 cells pyroptosis assay; format: cell-based; set-up: Seed THP-1 cells (25,000 cells/well) containing 1.0 μg/ml LPS; host or cells: THP-1; details: LPS 1.0 μg/ml, nigericin 5 μM, resazurin readout, 10 μM top dose (Example 2: top dose of 30 μM)
Sequence (Q96P20 whole entry): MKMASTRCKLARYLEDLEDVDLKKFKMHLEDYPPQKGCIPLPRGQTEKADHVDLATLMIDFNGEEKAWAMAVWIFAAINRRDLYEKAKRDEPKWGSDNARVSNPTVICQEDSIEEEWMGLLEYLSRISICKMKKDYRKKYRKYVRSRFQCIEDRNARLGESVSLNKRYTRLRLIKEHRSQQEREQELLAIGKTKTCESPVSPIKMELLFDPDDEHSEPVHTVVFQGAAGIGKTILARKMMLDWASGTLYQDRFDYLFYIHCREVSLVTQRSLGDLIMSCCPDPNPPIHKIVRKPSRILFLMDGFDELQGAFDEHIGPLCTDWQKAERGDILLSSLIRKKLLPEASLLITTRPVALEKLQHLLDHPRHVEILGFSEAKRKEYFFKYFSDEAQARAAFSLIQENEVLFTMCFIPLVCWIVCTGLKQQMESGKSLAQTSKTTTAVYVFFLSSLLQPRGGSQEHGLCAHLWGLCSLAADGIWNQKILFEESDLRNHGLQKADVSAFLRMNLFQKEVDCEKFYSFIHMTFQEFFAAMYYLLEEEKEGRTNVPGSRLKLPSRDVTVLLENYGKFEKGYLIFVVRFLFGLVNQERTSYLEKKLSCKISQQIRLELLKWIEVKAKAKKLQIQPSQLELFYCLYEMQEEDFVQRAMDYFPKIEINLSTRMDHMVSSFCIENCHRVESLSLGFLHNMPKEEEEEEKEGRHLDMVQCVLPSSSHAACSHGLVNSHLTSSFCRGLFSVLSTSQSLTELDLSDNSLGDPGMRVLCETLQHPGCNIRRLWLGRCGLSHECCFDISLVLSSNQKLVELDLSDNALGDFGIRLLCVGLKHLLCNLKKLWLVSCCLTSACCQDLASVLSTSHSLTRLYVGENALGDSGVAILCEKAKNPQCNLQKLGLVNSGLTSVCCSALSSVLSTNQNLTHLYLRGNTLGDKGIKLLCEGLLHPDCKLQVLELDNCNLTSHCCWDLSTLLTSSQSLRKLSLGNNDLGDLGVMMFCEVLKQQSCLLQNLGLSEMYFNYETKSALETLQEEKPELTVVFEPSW
Listed next: entries and their corresponding IC50.
quantityMeasured: IC50

compound="CN1CCCC1CCS(=O)(=O)c1nnc(Nc2c3c(cc4c2CCC4)CCC3)[nH]1 (stereo not drawn)" endpointvalue="≤ 1000 nM"
compound="CN1CCCC1CS(=O)(=O)c1nnc(Nc2c3c(cc4c2CCC4)CCC3)[nH]1 (stereo not drawn)" endpointvalue="≤ 10000 nM"
compound=CC(C)(O)[C@H]1CCN(S(=O)(=O)c2nnc(Nc3c4c(cc5c3CCC5)CCC4)[nH]2)C1 endpointvalue="≤ 500 nM"
compound=COC1(c2cc(S(=O)(=O)c3nnc(Nc4c5c(cc6c4CCC6)CCC5)[nH]3)nn2C)COC1 endpointvalue="≤ 1000 nM"
compound=O=S(=O)(c1ccn(CCO)n1)c1nnc(Nc2c3c(cc4c2CCC4)CCC3)[nH]1 endpointvalue="≤ 1000 nM"
compound="O=S(=O)(CC1CCOC1)c1nnc(Nc2c3c(cc4c2CCC4)CCC3)[nH]1 (stereo not drawn)" endpointvalue="≤ 10000 nM"

These measurements were taken from patent US20210261512A1.
